experimentalSystem: LmjIPCS (inositol phosphorylceramide synthase from L. major) (Leishmania major)
Sequence (E9AFX2 1-338): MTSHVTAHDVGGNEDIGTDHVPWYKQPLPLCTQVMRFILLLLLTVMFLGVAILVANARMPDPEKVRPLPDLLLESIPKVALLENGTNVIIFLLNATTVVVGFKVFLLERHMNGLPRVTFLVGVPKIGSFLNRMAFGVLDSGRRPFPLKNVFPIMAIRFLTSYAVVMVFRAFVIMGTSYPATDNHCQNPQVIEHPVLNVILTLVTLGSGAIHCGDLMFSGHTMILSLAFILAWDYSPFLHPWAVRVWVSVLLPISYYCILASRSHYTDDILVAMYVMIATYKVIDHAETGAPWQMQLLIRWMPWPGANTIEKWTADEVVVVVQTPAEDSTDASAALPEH
protocolSummary: biochemical
Format: biochemical
measurementName: 20mM inhibition LmjIPCS (%)
Number in %, nothing else.

{"columns": ["compound", "scaleUnit", "result"],
 "data": [
  ["N=C(NCCC[C@H](N)C(=O)O)N[N+](=O)[O-]", "%", 1.68],
  ["CCCNC(C)C(=O)Nc1ccccc1C (centres unmarked)", "%", 34],
  ["CCC(=O)O[C@]1(C(=O)CCl)[C@@H](C)C[C@H]2[C@@H]3CCC4=CC(=O)C=C[C@]4(C)[C@@]3(F)[C@@H](O)C[C@@]21C [CLOBETASOL PROPRIONATE]", "%", 17]
]}

[in] GET /values?readout=20mM inhibition LmjIPCS&item= `N=C1C=CC(=C(c2ccc(N)cc2)c2ccc(N)cc2)C=C1`
[out] 78

[in] GET /values?readout=20mM inhibition LmjIPCS&item= `CC(C)Cn1c(=O)n(C)c(=O)c2[nH]cnc21`
[out] 11

[in] GET /values?readout=20mM inhibition LmjIPCS&item= `CCn1nc(C(=O)O)c(=O)c2cc3c(cc21)OCO3`
[out] 53
